Molecular target: chicken IgY (chicken)
Assay: BLI; Octet, SAX (streptavidin) biosensors; recombinant Fabs against IgY; KD from a kinetic 1:1 model, global fit over multiple concentrations (partial fits averaged for 3 low-affinity Fabs)
Reported property: koff (s⁻¹)
Numbers only, in s⁻¹.

clone 2.1 Fab CB_02 (clonal burst) (Fab, V domains shown) VH: EVQLQESGPSLVKPSQTLSLTCSVTGDSITSGYWNWIRKFPGNKLEYMGYISYSGSTYYNPSLKSRISITRDTSKNQYYLQLNSVTTEDTATYYCGRDFDVWGAGTTVTVSS VL: DIVMTQSQKFMSTSVGDRVSVTCKASQNVGTNVGWYQQKPGQSPKALIYSASYRYSGVPDRFTGSGSGTDFTLTISNVQSEDLAEYFCQQYNSYPLTFGSGTKLEIK = 0.000123

Here is the next item to consider.
Asked: Reported koff for clone 2.1 Fab, unmutated (Fab, V domains shown) VH: EVQLQESGPSLVKPSQTLSLTCSVTGDSITSGYWNWIRKFPGNKLEYMGYISYSGSTYYNPSLKSRISITRDTSKNQYYLQLNSVTTEDTATYYCARDFDVWGAGTTVTVSS VL: DIVMTQSQKFMSTSVGDRVSVTCKASQNVGTNVAWYQQKPGQSPKALIYSASYRYSGVPDRFTGSGSGTDFTLTISNVQSEDLAEYFCQQYNSYPLTFGSGTKLEIK : what is it?
Given back: 0.00226
